The values you see were collected from ChEMBL document CHEMBL5058577.

System: HEK-293T
Assay: Multiplex assay against HEK293T
Assay type: toxicity, cell-based
Conditions: human, 12 h, 1 µM, compound concentration 1 uM, replicate 2
Field 'label' (enum: Y / N). Set to Y when Population Healthy Nuclei (%) is strictly under 80%; else N.

Q. I'd appreciate it if you could check whether C[C@H](NC(=O)CNC(=O)c1cccc(Cl)c1)c1ccccc1 has Population Healthy Nuclei (%) smaller than 80%.
A. N

Q. I'd appreciate it if you could check whether Cc1cc(-c2ccc3c(c2)CC[C@H]3N2CC3(CCN(C(=O)Cc4cn5cc(C)sc5n4)CC3)C2)ncn1 has Population Healthy Nuclei (%) smaller than 80%.
A. Y

Q. I'd appreciate it if you could check whether Cc1cc(O)c(-c2ccc([C@@H](C)CN(C)C)cc2)c2c1[nH]c(=O)c1sccc12 has Population Healthy Nuclei (%) smaller than 80%.
A. Y

* * *

Test system: Fibroblast
Experiment: Multiplex assay against human fibroblast
Assay type: toxicity, cell-based
Conditions: 48 h, 10 µM, compound concentration 10 uM, replicate 2
endpoint_name: Population Mitotic Cells (%)
API: value field is a number in %; no unit string.

// known answers, use as guide
{"compound": "S=C(NCCCc1c[nH]cn1)NCCCN(Cc1ccc(Cl)c(Cl)c1)c1ccc(Br)cn1", "measurement": 36}
{"compound": "CN1CCN2c3ccccc3Cc3ccccc3C2C1.Cl (centres undefined) [MIANSERIN HYDROCHLORIDE]", "measurement": 61}
{"compound": "COc1ccc2[nH]c(I)c(CCNC(C)=O)c2c1", "measurement": 61}
{"compound": "COc1cc(OC2CCN(C(C)=O)CC2)ccc1C(=O)N1CCC(N2C(=O)OCc3ccccc32)CC1", "measurement": 43}
{"compound": "CCCCC[C@H](O)/C=C/[C@H]1[C@H](O)CC(=O)[C@@H]1CCCCCCC(=O)O", "measurement": 51}

Q. Item C[C@H](NC(=O)CNC(=O)c1cccc(Cl)c1)c1ccccc1 has what recorded Population Mitotic Cells (%)?
A. 30

Q. Item COC(c1ccccc1)(c1ccccc1)[C@H](Oc1nc(C)cc(C)n1)C(=O)O has what recorded Population Mitotic Cells (%)?
A. 28

Q. Item CCCCCCNC(=O)Nc1ccc(S(=O)(=O)Nc2ccc(CCNC[C@H](O)COc3ccc(O)cc3)cc2)cc1 has what recorded Population Mitotic Cells (%)?
A. 28

Q. Item Cc1cc(=O)n(C)c2cc(N3C(=O)CC[C@H](NS(=O)(=O)CC(C)C)[C@H]3c3ccc(Cl)cc3)ccc12 has what recorded Population Mitotic Cells (%)?
A. 45

Q. Item CN1CCN(c2ccc(Nc3c4ccccc4nc4ccccc34)cc2)CC1.Cl.Cl.O has what recorded Population Mitotic Cells (%)?
A. 0

Q. Item CCn1c(-c2nc3cc(C(=O)N4CCCC(N)C4)ccc3n2C)cc2ccccc21.Cl (centres undefined) has what recorded Population Mitotic Cells (%)?
A. 40

* * *

System: Fibroblast
Test: Multiplex assay against human fibroblast
Type: toxicity, cell-based
Conditions: 12 h, 1 µM, compound concentration 1 uM, replicate 2
endpoint_name: Population Fragmented Nuclei (%)
API: value field is a number in %; no unit string.

// known answers, use as guide
{"chemical_smiles": "Cc1cc(O)c(-c2ccc([C@@H](C)CN(C)C)cc2)c2c1[nH]c(=O)c1sccc12", "Population Fragmented Nuclei (%)": 22}
{"chemical_smiles": "COc1ccc2[nH]c(I)c(CCNC(C)=O)c2c1", "Population Fragmented Nuclei (%)": 23}
{"chemical_smiles": "Cc1c(Cc2ccc3ccccc3n2)c2cc(F)ccc2n1CC(=O)O", "Population Fragmented Nuclei (%)": 28}
{"chemical_smiles": "Cn1cc(C(=O)OCC2CCN(CCNS(C)(=O)=O)CC2)c2ccccc21", "Population Fragmented Nuclei (%)": 21}

Q. Item Cc1cc(-c2ccc3c(c2)CC[C@H]3N2CC3(CCN(C(=O)Cc4cn5cc(C)sc5n4)CC3)C2)ncn1 has what recorded Population Fragmented Nuclei (%)?
A. 18

* * *

Below, each entry is listed with its recorded Total Cell Count.
Test system: Fibroblast
Assay: Multiplex assay against human fibroblast
Type: toxicity, cell-based
Details: 48 h, 1 µM, compound concentration 1 uM, replicate 1

// known answers, use as guide
{"compound": "COc1cc(OC2CCN(C(C)=O)CC2)ccc1C(=O)N1CCC(N2C(=O)OCc3ccccc32)CC1", "measurement": 160}
{"compound": "Cc1cc(O)c(-c2ccc([C@@H](C)CN(C)C)cc2)c2c1[nH]c(=O)c1sccc12", "measurement": 118}

Q. API: value(readout=Total Cell Count, system=Fibroblast) for record CCCCC[C@H](O)/C=C/[C@H]1[C@H](O)CC(=O)[C@@H]1CCCCCCC(=O)O [ALPROSTADIL]
A. 152

Q. API: value(readout=Total Cell Count, system=Fibroblast) for record COc1ccc2c(c1OCc1ccccc1)C[C@@H](C(=O)O)N(C(=O)C(c1ccccc1)c1ccccc1)C2 [OLODANRIGAN]
A. 154

* * *

System: U2OS
Assay: Multiplex assay against U2OS
Format: toxicity, cell-based
Conditions: human, 24 h, 1 µM, compound concentration 1 uM, replicate 2
Non-standard residues stand in square brackets, D forms with d. Residues, ends and D or L forms follow the SMILES beside them.
Below, each entry is listed with its recorded Population Apoptotic (%).
API: value field is a number in %; no unit string.

// known answers, use as guide
{"compound": "CN1C[C@H](C(=O)N[C@]2(C)O[C@@]3(O)[C@@H]4CCCN4C(=O)[C@H](Cc4ccccc4)N3C2=O)C[C@@H]2c3cccc4[nH]cc(c34)C[C@H]21.CS(=O)(=O)O [DIHYDROERGOTAMINE MESYLATE]", "measured_on": "U2OS", "Population Apoptotic (%)": 100}
{"compound": "COc1c(Nc2ccc(S(C)(=O)=O)nc2C)ncnc1OC1CCN(C(=O)OC(C)C)CC1 [ADP-597]", "measured_on": "U2OS", "Population Apoptotic (%)": 80}
{"compound": "COc1ccc2c(c1OCc1ccccc1)C[C@@H](C(=O)O)N(C(=O)C(c1ccccc1)c1ccccc1)C2 [OLODANRIGAN]", "measured_on": "U2OS", "Population Apoptotic (%)": 55}
{"compound": "COc1cc(Nc2ncc3c(n2)-c2ccc(Cl)cc2C(c2c(F)cccc2OC)=NC3)ccc1C(=O)O [ALISERTIB]", "measured_on": "U2OS", "Population Apoptotic (%)": 75}
{"compound": "Cn1cc(C(=O)OCC2CCN(CCNS(C)(=O)=O)CC2)c2ccccc21", "measured_on": "U2OS", "Population Apoptotic (%)": 100}
{"compound": "O=c1ccc2ccc(OCCCCN3CCN(c4cccc5sccc45)CC3)cc2[nH]1 [BREXPIPRAZOLE]", "measured_on": "U2OS", "Population Apoptotic (%)": 66}
{"compound": "O=c1nc2[nH]c3ccccc3nc-2c(=O)[nH]1 [ALLOXAZINE]", "measured_on": "U2OS", "Population Apoptotic (%)": 57}
{"compound": "CCCCC[C@H](O)/C=C/[C@H]1[C@H](O)CC(=O)[C@@H]1CCCCCCC(=O)O [ALPROSTADIL]", "measured_on": "U2OS", "Population Apoptotic (%)": 87}

Q. Item COc1ccc2[nH]c(I)c(CCNC(C)=O)c2c1 [IODOMELATONIN] has what recorded Population Apoptotic (%)?
A. 80

Q. Item CN1CCN2c3ccccc3Cc3ccccc3C2C1.Cl (stereo unspecified) [MIANSERIN HYDROCHLORIDE] has what recorded Population Apoptotic (%)?
A. 75

Q. Item C[C@@H]1CC(=O)Nc2cccc(-c3ccc4c(c3)c(-c3cnn(C)c3)nn4C)c2N1 has what recorded Population Apoptotic (%)?
A. 100

Q. Item S=C(NCCCc1c[nH]cn1)NCCCN(Cc1ccc(Cl)c(Cl)c1)c1ccc(Br)cn1 has what recorded Population Apoptotic (%)?
A. 100

Q. Item Cc1cc(-c2ccc3c(c2)CC[C@H]3N2CC3(CCN(C(=O)Cc4cn5cc(C)sc5n4)CC3)C2)ncn1 [PF-5190457] has what recorded Population Apoptotic (%)?
A. 33

Q. Item CC(C)(O)C(=O)N1CCN(c2ccc(C(F)(F)F)c(C3=C(c4c[nH]c5ccccc45)C(=O)NC3=O)c2)CC1 has what recorded Population Apoptotic (%)?
A. 82

Q. Item CC(C)C[C@@H]1NC(=O)[C@@H](C(C)C)NC(=O)[C@@H]2CCCN2C(=O)[C@@H](CC(=O)O)NC(=O)[C@@H](Cc2c[nH]c3ccccc23)NC1=O [BQ-123] (cyclo(L[dW][dD]P[dV])) has what recorded Population Apoptotic (%)?
A. 85

Q. Item COCCn1c(C)c(C)s/c1=N\C(=O)C1C(C)(C)C1(C)C has what recorded Population Apoptotic (%)?
A. 83

* * *

Below, each entry is listed with its recorded Population Mitotic Cells (%).
System: U2OS
Experiment: Multiplex assay against U2OS
Format: toxicity, cell-based
Settings: human, 48 h, 1 µM, compound concentration 1 uM, replicate 2
API: value field is a number in %; no unit string.

// known answers, use as guide
{"compound": "OCCCNc1cc(-c2ccnc(Nc3cccc(Cl)c3)n2)ccn1", "endpoint_name": "Population Mitotic Cells (%)", "measurement": 0}
{"compound": "CN1C[C@H](C(=O)N[C@]2(C)O[C@@]3(O)[C@@H]4CCCN4C(=O)[C@H](Cc4ccccc4)N3C2=O)C[C@@H]2c3cccc4[nH]cc(c34)C[C@H]21.CS(=O)(=O)O [DIHYDROERGOTAMINE MESYLATE]", "endpoint_name": "Population Mitotic Cells (%)", "measurement": 10}
{"compound": "Cc1sc2c(c1C)C(c1ccc(Cl)cc1)=N[C@H](CC(=O)OC(C)(C)C)c1nnc(C)n1-2", "endpoint_name": "Population Mitotic Cells (%)", "measurement": 3}

API: the following record is the query input.
Q. API: value(readout=Population Mitotic Cells (%), system=U2OS) for record Nc1nc(-c2ccco2)c2cnn(Cc3ccccc3F)c2n1
A. 4
